test system: Gastric Acid Secretion Accelerated by Histamine in Pylorus-ligated Rats; experiment: Inhibitory Effect on Gastric Acid Secretion by Histamine in Pylorus-ligated Rats; format: in vivo, male Wister rat; settings: dose 2 mg/kg s.c.; histamine 3 mg/kg s.c. 30 min later; average of 5 measurements; ** P < 0.01 vs control group (all values marked **)
property measured: Gastric Acid Secretion in Rats, Rate of inhibition (%)
Write the value in % as a bare number.

compound | measured target | unit string | reported result
Cc1[nH]c(NC/C=C\COc2cccc(CN3CCCCC3)c2)nc(=O)c1C | Gastric Acid Secretion Accelerated by Histamine in Pylorus-ligated Rats | % | 70
CN/C(=N/CCSCc1nc[nH]c1C)NC#N [Cimetidine, reference compound] | Gastric Acid Secretion Accelerated by Histamine in Pylorus-ligated Rats | % | 70
Cc1[nH]c(NC/C=C\COc2cc(CN3CCCCC3)ccn2)nc(=O)c1CCc1ccccc1 | Gastric Acid Secretion Accelerated by Histamine in Pylorus-ligated Rats | % | 47

[ask] Complete the entry with Gastric Acid Secretion in Rats, Rate of inhibition for "Cc1[nH]c(NC/C=C\COc2cc(CN3CCCCC3)ccn2)nc(=O)c1C"
[reply] 59

[ask] Complete the entry with Gastric Acid Secretion in Rats, Rate of inhibition for "CCCCCCCCCCCCc1c(C)[nH]c(NC/C=C\COc2cccc(CN3CCCCC3)c2)nc1=O"
[reply] 36

Provenance of the data: patent US4956463A
